# credit: patent US20240360227A1

- study target: Recombinant human his-tagged IGF R extracellular domain protein (human) (UniProt P08069)
- test method notes: SPR, Ab captured via anti-huIgG Fc, pH 7.4
Measured koff accompanies every entry in the list below.
Your answer is read as s⁻¹, so omit the unit and give the number.

Known koff results, listed for orientation:
* VRDN-02027 (antibody, V domains shown) VH: QVQLQESGPGLVKPSETLSLTCTVSGYSITGGYLWNWIRQPPGKGLEWIGYISYDGTNNYKPSLKDRVTISRDTSKNQFSLKLSSVTAADTAVYYCARYGRVFFHYWGQGTLVTVSS VL: DIVMTQSPLSLPVTPGEPASISCRSSQSIVHSNGNTYLQWYLQKPGQSPQLLIYKVSNRLYGVPDRFSGSGSGTDFTLKISRVEAEDVGVYYCFQGSHVPWTFGQGTKVEIK | 0.000957
* VRDN-02005 (antibody, V domains shown) VH: QVQLQESGPGLVKPSETLSLTCTVSGYSIHGGYLWNWIRQPPGKGLEWIGYISYDGTNNYKPSLKDRVTISRDTSKNQFSLKLSSVTAADTAVYYCARYGRVFFDYWGQGTLVTVSS VL: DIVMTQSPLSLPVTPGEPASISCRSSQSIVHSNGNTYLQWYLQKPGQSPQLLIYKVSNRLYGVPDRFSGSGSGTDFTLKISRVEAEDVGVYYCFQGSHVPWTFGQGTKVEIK | 6.09e-05
* VRDN-02100 (antibody, human IgG1, kappa, V domains shown) VH: QVQLQESGPGLVKPSETLSLTCTVSGYSITGGYLWNWIRQPPGKGLEWIGYISYDGTNNYKPSLKDRVTISRDTSKNQFSLKLSSVTAADTAVYYCARYGRVFFDYWGQGTLVTVSS VL: DIVMTQSPLSLPVTPGEPASISCRSSQSIVHSNGNTYLQWYLQKPGQSPQLLIYKVSNRLYGVPDRFSGSGSGTDFTLKISRVEAEDVGVYYCFQGSHVPWTFGQGTKVEIKR | 4.85e-05
* VRDN-02045 (antibody, V domains shown) VH: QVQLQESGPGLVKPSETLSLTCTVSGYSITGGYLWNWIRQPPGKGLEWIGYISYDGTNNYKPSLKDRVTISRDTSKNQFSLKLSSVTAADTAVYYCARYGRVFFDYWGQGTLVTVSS VL: DIVMTQSPLSLPVTPGEPASISCRSSQSIVHSNGNTYLQWYLQKPGQSPQLLIYKHSNRLYGVPDRFSGSGSGTDFTLKISRVEAEDVGVYYCFQGSHVPWTFGQGTKVEIK | 6.49e-05

Shift focus to the following entry.
QUERY: Look at this binder and give its reported koff. VRDN-02054 (antibody, V domains shown) VH: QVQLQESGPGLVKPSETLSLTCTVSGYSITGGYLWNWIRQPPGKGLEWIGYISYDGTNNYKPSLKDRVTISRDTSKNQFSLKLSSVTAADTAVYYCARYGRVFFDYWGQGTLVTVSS VL: DIVMTQSPLSLPVTPGEPASISCRSSQSIVHSNGNTYLQWYLQKPGQSPQLLIYKVSNRLYGVPDRFSGSGSGTDFTLKISRVEAEDVGVYYCFQGHHVPWTFGQGTKVEIK
RESULT: 6.19e-05
